Biological target: human TLR8 (Homo sapiens, UniProt Q9NR97)
Construct: expressed in transfected cells; host or cells: HEK293
Sequence (Q9NR97 27-1041): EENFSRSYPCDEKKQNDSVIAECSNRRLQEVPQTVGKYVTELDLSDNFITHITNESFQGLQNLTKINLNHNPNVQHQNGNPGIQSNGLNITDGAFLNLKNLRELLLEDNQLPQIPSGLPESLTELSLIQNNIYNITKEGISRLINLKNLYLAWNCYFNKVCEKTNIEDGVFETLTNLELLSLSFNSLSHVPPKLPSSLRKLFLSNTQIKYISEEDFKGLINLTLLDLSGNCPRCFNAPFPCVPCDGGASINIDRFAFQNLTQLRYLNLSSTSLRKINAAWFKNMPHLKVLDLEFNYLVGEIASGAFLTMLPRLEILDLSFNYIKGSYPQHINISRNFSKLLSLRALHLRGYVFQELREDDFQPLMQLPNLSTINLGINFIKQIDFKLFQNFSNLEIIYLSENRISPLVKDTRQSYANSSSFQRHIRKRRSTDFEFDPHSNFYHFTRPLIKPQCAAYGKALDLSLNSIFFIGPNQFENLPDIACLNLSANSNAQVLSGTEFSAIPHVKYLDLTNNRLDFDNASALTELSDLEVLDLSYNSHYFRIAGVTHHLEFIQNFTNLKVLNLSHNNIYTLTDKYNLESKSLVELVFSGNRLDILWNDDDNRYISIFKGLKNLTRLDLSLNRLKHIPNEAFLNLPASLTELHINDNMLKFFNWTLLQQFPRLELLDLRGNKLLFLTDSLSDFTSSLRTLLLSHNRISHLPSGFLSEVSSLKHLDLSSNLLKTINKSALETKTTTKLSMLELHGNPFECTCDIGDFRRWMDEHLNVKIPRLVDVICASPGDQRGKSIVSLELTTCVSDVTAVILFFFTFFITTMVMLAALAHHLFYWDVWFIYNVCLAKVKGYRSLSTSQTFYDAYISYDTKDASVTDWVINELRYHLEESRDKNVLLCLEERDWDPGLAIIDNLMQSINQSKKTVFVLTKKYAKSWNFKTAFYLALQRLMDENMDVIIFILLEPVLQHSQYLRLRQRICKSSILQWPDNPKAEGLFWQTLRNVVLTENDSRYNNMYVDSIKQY
Experiment: TLR8 cellular reporter assay (HEK293 TLR8-NFκB-luc)
Assay type: cell-based
Details: lowest effective concentration; HEK293 transiently transfected with TLR8 and NFκB-luc; 6 hours incubation
observable: LEC on HEK293 TLR8-NFκB-luc (µM)

(I) Nc1nc2nc3c1nc(O)n3Cc1ncccc1/C=C\CCCO2
(II) Nc1nc2nc3c1nc(O)n3Cc1ccccc1C/C=C/CCO2
(III) COc1cc2cc(c1)OC/C=C/COc1nc(N)c3nc(O)n(c3n1)C2
(IV) Nc1nc2nc3c1nc(O)n3Cc1ncccc1OCC/C=C\CO2
Enquiry: Put the items in order so that reported LEC on HEK293 TLR8-NFκB-luc rises from first to last. Labels, ranked as asked.
Return: III, II, I, IV
(III: 0.27 µM, II: 5.48 µM, I: 11.16 µM, IV: 20.46 µM)
